The origin of these recorded values is PubChem BioAssay (Tox21).

- EXPERIMENTAL PROTOCOL: qHTS assay to identify small molecule antagonists of the peroxisome proliferator-activated receptor gamma (PPARg) signaling pathway - cell viability counter screen (AID 743194); further: nearly all actives have a fitted effect of over 55% in size
- CONDITIONS USED: PPARg-bla HEK293H viability, CellTiter-Glo luminescence, 17 h; co-treated with 50 nM rosiglitazone unless noted; series mostly up to 62.6 µM
Results filed as inconclusive are left out. Activity calls are given as the source filed them. The call rests on the fitted dose curve; in most records, active means well fitted cell-killing curve with a large enough effect in the repeat runs; inconclusive means weak or mixed curves, or effect the other way; inactive means no such curve, though single readings can be large or run the other way.
Please state which outcome applies, choosing from 1 for active, 0 for inactive

Study these solved cases before continuing.
>  <COMPOUND>
CC(C)OS(C)(=O)=O

>  <CLASS NAME>
0

$$$$
>  <COMPOUND>
CCC(C)c1cc([N+](=O)[O-])cc([N+](=O)[O-])c1OC(=O)C=C(C)C (stereo not drawn)

>  <CLASS NAME>
1

$$$$
>  <COMPOUND>
CCC[CH2][Sn]([CH2]CCC)([CH2]CCC)[O]C(=O)c1ccccc1

>  <CLASS NAME>
1

$$$$
>  <COMPOUND>
CC(=O)[O-].CC(=O)[O-].[Hg+2]

>  <CLASS NAME>
1

$$$$
>  <COMPOUND>
C[C@]12CC[C@H]3[C@@H](CCC4=CC(=O)CC[C@@]43C)[C@@H]1CC[C@@H]2O

>  <CLASS NAME>
0

$$$$

Q: What outcome does the record of this test show for N#CSCSC#N ?
Ans: 1

Q: What outcome does the record of this test show for CN(C)CCc1c[nH]c2ccc(O)cc12 ?
Ans: 0

* * *

- EXPERIMENTAL PROTOCOL: qHTS assay for small molecules that induce genotoxicity in human embryonic kidney cells expressing luciferase-tagged ATAD5 - cell viability (AID 651634); further: nearly all actives have a fitted effect of over 25% in size; further: potency means the concentration at half of the fitted maximal effect
- CONDITIONS USED: HEK293T ATAD5-luc cells viability, CellTiter-Fluor, 15.5 h; series mostly up to 83.3 µM
- Text: National Center for Advancing Translational Sciences [NCATS] NIH Chemical Genomics Center [NCGC] U.S. Environmental Protection Agency [EPA] National Institutes of Environmental Health Sciences [NIEHS] National Toxicology Program [NTP] U.S. Food and Drug Administration [FDA] Enhanced Level of Genome Instability Gene 1 (ELG1; human ATAD5) protein levels increase in response to various types of DNA damage. […]
Results filed as inconclusive are left out. The source made the active and inactive calls. Calls follow the shape of the full dose curve.
READOUT NAME: Potency

# annotated cases, reported Potency shown
>  <COMPOUND>
CC1(C)CN=C(NN=C(/C=C/c2ccc(C(F)(F)F)cc2)/C=C/c2ccc(C(F)(F)F)cc2)NC1

>  <Potency>
48.6 µM (active)

$$$$
>  <COMPOUND>
ClC1=C(Cl)[C@]2(Cl)[C@H]3[C@H]([C@H]4C=C[C@H]3C4)[C@@]1(Cl)C2(Cl)Cl

>  <Potency>
inactive

$$$$
>  <COMPOUND>
Cc1cc(N=Nc2ccccc2C)ccc1N

>  <Potency>
48.6 µM (active)

$$$$
>  <COMPOUND>
Clc1ccc(C(Cl)(Cl)Cl)c(Cl)c1

>  <Potency>
inactive

$$$$
>  <COMPOUND>
O=CC(Br)(Br)Br

>  <Potency>
30.5 µM (active)

$$$$

API: the following record is the query input.
Q: Could you share which Potency value was measured for CC(C)OC(=O)C(O)(c1ccc(Cl)cc1)c1ccc(Cl)cc1 ?
Ans: inactive

* * *

- EXPERIMENTAL PROTOCOL: qHTS assay to identify small molecule agonists of the androgen receptor (AR) signaling pathway in the presence of an antagonist - cell viability counter screen (AID 1259379); further: nearly all actives have a fitted effect of over 25% in size
- CONDITIONS USED: MDA-kb2 viability, CellTiter-Fluor, 16 h; series mostly up to 92.4 µM
- Description: National Center for Advancing Translational Sciences [NCATS] NIH Chemical Genomics Center [NCGC] U.S. Environmental Protection Agency [EPA] National Institutes of Environmental Health Sciences [NIEHS] National Toxicology Program [NTP] U.S. Food and Drug Administration [FDA] Androgen receptor (AR) is an important member of nuclear receptor family. Its signaling plays a critical role in AR-dependent prostate cancer and other androgen related diseases. […]
Results filed as inconclusive are left out. Active and inactive are the calls of the source. Calls follow the shape of the dose curve; as a rule, active = well fitted cell-killing curve with a large enough effect in the repeat runs; inconclusive = weak or mixed curves, or effect the other way; inactive = flat fitted curve, though single readings scatter.
Please state which outcome applies, choosing from active, inactive

>  <MOLECULE>
O=C1C=CC(=O)c2ccccc21

>  <CLASS NAME>
active

$$$$
>  <MOLECULE>
ClC1=C(Cl)[C@]2(Cl)[C@@H]3[C@@H](Cl)[C@@H](Cl)C[C@@H]3[C@@]1(Cl)C2(Cl)Cl

>  <CLASS NAME>
inactive

$$$$

Q: What outcome does the record of this test show for CCCCCCCCCCBr ?
Ans: inactive

Q: What outcome does the record of this test show for Cc1cc(C(F)(C(F)(F)F)C(F)(F)F)ccc1NC(=O)c1cccc(I)c1C(=O)NC(C)(C)CS(C)(=O)=O ?
Ans: inactive

Q: What outcome does the record of this test show for CCCCCCCCc1ccc(O)cc1 ?
Ans: inactive

Q: What outcome does the record of this test show for Cc1cc(C)c(C2=C(OC(=O)CC(C)(C)C)C3(CCCC3)OC2=O)c(C)c1 ?
Ans: inactive

Q: What outcome does the record of this test show for CC(=O)[O-].[Tl+] ?
Ans: inactive

* * *

- SUBJECT OF TEST: Nuclear receptor subfamily 1 group I member 2 (Homo sapiens)
- EXPERIMENTAL PROTOCOL: Human pregnane X receptor (PXR) small molecule agonists, qHTS assay (AID 1346982); further: nearly all actives have a fitted effect of over 35% in size
- CONDITIONS USED: PXR-Luc HepG2, CYP3A4 luciferase reporter, 24 h; series mostly up to 92.4 µM
Inconclusive results are not listed. Calls of active or inactive are those of the source. Calls come from the whole dose curve; as a rule, active = well fitted activation curve with a large enough effect in the repeat runs; inconclusive = weak or mixed curves; inactive = no such curve, though single readings can be large or run the other way.
Please state which outcome applies, choosing from active, inactive

>  <MOLECULE>
CCCCCCCCCCBr

>  <SUBJECT OF TEST>
Nuclear receptor subfamily 1 group I member 2 (Homo sapiens)

>  <CLASS NAME>
inactive

$$$$
>  <MOLECULE>
ClCCN1CCOCC1

>  <SUBJECT OF TEST>
Nuclear receptor subfamily 1 group I member 2 (Homo sapiens)

>  <CLASS NAME>
inactive

$$$$
>  <MOLECULE>
CC(C)[C@H](C(=O)O[C@H](C#N)c1cccc(Oc2ccccc2)c1)c1ccc(Cl)cc1

>  <SUBJECT OF TEST>
Nuclear receptor subfamily 1 group I member 2 (Homo sapiens)

>  <CLASS NAME>
active

$$$$
>  <MOLECULE>
CC[C@H]1C[C@@H]2C[C@H]3c4[nH]c5ccc(OC)cc5c4CCN(C2)[C@@H]13

>  <SUBJECT OF TEST>
Nuclear receptor subfamily 1 group I member 2 (Homo sapiens)

>  <CLASS NAME>
inactive

$$$$
>  <MOLECULE>
O=[N+]([O-])c1c2ccccc2cc2ccccc12

>  <SUBJECT OF TEST>
Nuclear receptor subfamily 1 group I member 2 (Homo sapiens)

>  <CLASS NAME>
active

$$$$
>  <MOLECULE>
C=CC(=O)OCCCCOC(=O)C=C

>  <SUBJECT OF TEST>
Nuclear receptor subfamily 1 group I member 2 (Homo sapiens)

>  <CLASS NAME>
inactive

$$$$

Q: What outcome does the record of this test show for FC(Cl)(Cl)Cl ?
Ans: inactive

Q: What outcome does the record of this test show for COc1ccc(OC)c(CC(C)N)c1 (stereo not drawn) ?
Ans: inactive

Q: What outcome does the record of this test show for COP(N)(=S)OC ?
Ans: inactive

Q: What outcome does the record of this test show for O=c1[nH]c2ccccc2n1C1CCN(CCCC(c2ccc(F)cc2)c2ccc(F)cc2)CC1 ?
Ans: inactive

* * *

- SUBJECT OF TEST: Cytochrome P450 3A4 (Homo sapiens) (UniProt P08684)
- Sequence (P08684 whole entry, looked up): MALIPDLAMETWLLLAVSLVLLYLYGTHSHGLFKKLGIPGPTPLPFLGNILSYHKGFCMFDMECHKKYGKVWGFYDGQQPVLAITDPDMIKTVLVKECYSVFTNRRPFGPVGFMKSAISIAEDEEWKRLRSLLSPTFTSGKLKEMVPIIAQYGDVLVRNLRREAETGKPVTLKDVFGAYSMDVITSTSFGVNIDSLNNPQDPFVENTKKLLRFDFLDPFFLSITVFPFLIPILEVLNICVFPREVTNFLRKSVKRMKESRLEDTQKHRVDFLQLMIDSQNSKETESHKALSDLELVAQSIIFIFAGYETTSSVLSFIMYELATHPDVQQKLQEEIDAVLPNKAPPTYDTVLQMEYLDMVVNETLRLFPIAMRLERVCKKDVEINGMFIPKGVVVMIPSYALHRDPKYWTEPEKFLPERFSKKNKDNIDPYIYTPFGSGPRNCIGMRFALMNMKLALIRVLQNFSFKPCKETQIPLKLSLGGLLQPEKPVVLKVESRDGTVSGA
- EXPERIMENTAL PROTOCOL: Cytochrome P450 Family 3 Subfamily A Member 4 (CYP3A4) small molecule antagonists: luciferase reporter qHTS assay (AID 1671201); further: nearly all actives have a fitted effect of over 50% in size
- CONDITIONS USED: P450-Glo CYP3A4 enzyme, luciferin luminescence, 1 h; series mostly up to 115 µM
- Description: National Center for Advancing Translational Sciences [NCATS] U.S. Environmental Protection Agency [EPA] National Institutes of Environmental Health Sciences [NIEHS] National Toxicology Program [NTP] U.S. Food and Drug Administration [FDA] Cytochrome P450 (CYP) enzymes are membrane-bound hemeproteins that play a key role in metabolism of drugs and xenobiotics. […] The luciferin products formed are detected with a luciferin detection reagent, and the amount of light produced is proportional to CYP activity. […]
Inconclusive results are not listed. Calls of active or inactive are those of the source. The call rests on the fitted dose curve; in most records, active means well fitted inhibition curve with a large enough effect in the repeat runs; inconclusive means weak or mixed curves; inactive means no such curve, though single readings can be large or run the other way.
Please state which outcome applies, choosing from active, inactive

Study these solved cases before continuing.
>  <MOLECULE>
CC(C)N1C(=O)N(c2ccccc2)CSC1=NC(C)(C)C

>  <SUBJECT OF TEST>
Cytochrome P450 3A4 (Homo sapiens) (UniProt P08684)

>  <CLASS NAME>
active

$$$$
>  <MOLECULE>
Oc1ccccc1Br

>  <SUBJECT OF TEST>
Cytochrome P450 3A4 (Homo sapiens) (UniProt P08684)

>  <CLASS NAME>
inactive

$$$$
>  <MOLECULE>
C[C@@H]1O[C@@H](O[C@H]2C[C@@H](O)[C@]3(CO)[C@H]4[C@H](O)C[C@]5(C)[C@@H](C6=CC(=O)OC6)CC[C@]5(O)[C@@H]4CC[C@]3(O)C2)[C@H](O)[C@H](O)[C@H]1O

>  <SUBJECT OF TEST>
Cytochrome P450 3A4 (Homo sapiens) (UniProt P08684)

>  <CLASS NAME>
inactive

$$$$
>  <MOLECULE>
CC1(C)CN=C(NN=C(/C=C/c2ccc(C(F)(F)F)cc2)/C=C/c2ccc(C(F)(F)F)cc2)NC1

>  <SUBJECT OF TEST>
Cytochrome P450 3A4 (Homo sapiens) (UniProt P08684)

>  <CLASS NAME>
inactive

$$$$

Q: What outcome does the record of this test show for CC(C)[C@H](C(=O)O[C@H](C#N)c1cccc(Oc2ccccc2)c1)c1ccc(Cl)cc1 ?
Ans: inactive

Q: What outcome does the record of this test show for ClC1=C(Cl)[C@]2(Cl)[C@@H]3[C@@H](Cl)[C@H](Cl)C[C@@H]3[C@@]1(Cl)C2(Cl)Cl ?
Ans: inactive

Q: What outcome does the record of this test show for Clc1ccc(Oc2ccccc2)cc1 ?
Ans: inactive
